System: spleen lymphocytes induced by Con A
Experiment: Detection of cell proliferation inhibition: Con A-induced spleen lymphocyte proliferation (CCK-8)
Assay type: cell-based
Conditions: Mus musculus, linear fit of inhibition rate against log concentration, ConA final 7.5 μg/mL, 48 h
quantity measured: IC50 (µM)
Write it as a number; the unit µM goes unstated.

compound	unit text	test value
CCCCCCCCCCCCCCCC(=O)N[C@@H](CO[C@@H]1O[C@H](CO)[C@@H](O)[C@H](O)[C@H]1O)[C@H](O)/C=C/CC/C=C(\C)CCCCCCCCC [Compound 4]	µM	1.5
CCCCCCCCC/C=C/CC/C=C/[C@@H](O)[C@H](CO[C@@H]1O[C@H](CO)[C@@H](O)[C@H](O)[C@H]1O)NC(=O)[C@H](O)/C=C/CCCCCCCCCCCC [Compound 3]	µM	19.5
CCCCCCCCCCC/C=C/[C@@H](O)C(=O)N[C@@H](CO[C@@H]1O[C@H](CO)[C@@H](O)[C@H](O)[C@H]1O)[C@H](O)/C=C/CC/C=C(\C)CCCCCCCCC [Compound 2]	µM	10.4

Now examine the next entry.
Reported IC50 of CCCCCCCCCCCCC/C=C/[C@@H](O)C(=O)N[C@@H](CO[C@@H]1O[C@H](CO)[C@@H](O)[C@H](O)[C@H]1O)[C@H](O)/C=C/CC/C=C(\C)CCCCCCCCC [Compound 1] : 4
